molecular target: RSV F protein of subtype A (strain A2) on recombinant mKate-RSV (respiratory syncytial virus subtype A …, UniProt P03420 26-574); assay: cell-based or functional assay
measurement-label: Neut IC50 subtype A (µg/mL)
Respond with the bare value in µg/mL.

Example entries and their recorded answers appear below.
ADI-19005 (antibody, V domains shown) VH: QVQLVQSGAEVKKPGASVRVSCKASGYTFTDYFMNWVRQAPGGGLEWMGWINPLSGVTKYAQQFQGSVTMTTDTSITTGYMELRSLRVDDTAVYYCASQSSPYTPGAMGVWGQGTTVTVSS VL: DIRMTQSPSSLSASVGDRVTITCRTSQSVSGYLSWYQQKPGKAPKLLIYAASNLYSGVPSRFSGSGSGTDFTLTITSLQPEDFATYFCQLNSGALFTFGPGTKVEIK ... 0.041
ADI-18983 (antibody, V domains shown) VH: EVQLVESGGGVVQPGRSLRLSCAASGFTFSSFSMHWVRQAPGKGLEWVALISSDERNSYYADSVKGRFTISRDNSKNTLYLQISRLKVEDTAVYYCAREAYEEWELTMGNLDHWGQGTLVTVSS VL: DIQLTQSPSSLSASVGDRVTITCRASQGIGNDLGWYQQKPGKAPKRLIYSTYSLQSGVPSRFSGSGSGTEFTLTISSLQPEDFATYYCLQHNRYPFTFGPGTKLEIK ... 0.028
ADI-18999 (antibody, V domains shown, full-length IgG) VH: QVQLVQSGAEVKKPGSSVKVSCKASGGRFSSDAISWVRQAPGQGLEWMGGIIPIRGTPTYAQKFQGRVTIIADESTTTSYMEMSSLRSEDTAVYYCARPNYDILTGYNDAFDIWGQGTMVTVSS VL: QSVLTQPRSVSGSPGQSVTISCTGTSSDVGGYNYVSWYQQHPGKVPRLMIYDVSKRPSGAPDRFSGSKSGNTASLTISGLQAEDEADYYCCSYAGGLYVFGTGTKLTVL ... 1.8
ADI-18998 (antibody, V domains shown, full-length IgG; also called Antibody Number 346) VH: EVQLLESGPGLVKPSQTLSLTCTVSGGSINSIDYYWSWIRQPPGKGLEWIGYIYHSGSTHYRPSLKSRVTISLDKAKNEFSLSLTSVTAADTAVYFCASGPVGMATSNWFDPWGQGTLVTVSS VL: QPVLTQPPSVSVTPGETARLPCEGDIVVTNSVHWYQQKPGQAPVLVVYYDSDRASGIPERFSGSNSGNTATLSISRVEAGDEADYYCQVWDSSTDHHVVFGGGTKLTVL ... 0.055
ADI-19016 (antibody, V domains shown) VH: QVQLVESGGGLVKPGGSLRLSCVASGFTFSSYAMNWVRQAPGKGLDWVSSISAGSNFIDDADSVKGRFTISRDNARNSLFLQMNSLRAEDTAVYYCARIGYSSAHHYQYYMDVWGTGTTVTVSS VL: QSVLTQPPSVSGAPGQRVTISCTGSSSNIGAGYDVHWYQDLPGTAPKLLIYGNTNRPSGVPDRFSGSKSGASASLVITGLQAEDEADYYCQSYDKSLSGGYVFGTGTKVTVL ... 0.052

Ask | Please give the documented Neut IC50 subtype A of ADI-18980 (antibody, V domains shown, full-length IgG; also called Antibody Number 328) VH: QVQLVQSGAEVKKPGESLKISCKGFGYSFNSYWIAWVRQMPGKGLECMGIIYPGDSDTRYSPSFQGQVTISVDKSITTAYLQWSSLKVSDTAMYYCAKSNVGNTGWNYWGQGTLVTVSS VL: EIVLTQSPATLSLSPGERATLSCRASHSVATDLAWYQQKPGQAPRLLIYDASKRATDVPARFSGSGSGTDFTLTISSLEPEDVAVYYCQEVRNWPPCTFGQGTKVDIK
Reply | 3.6

Hey, just so you know, these numbers are from patent US20200223906A1.
